- Tested on: X-MuLV
- Format: cell-based, xenotropic murine leukemia virus
- protocol conditions: 0.5×CMC, 25° C., 30 minutes
endpoint: X-MuLV inactivation

>>> df
                                   compound  tested_on  readout_value
0  CCCCCCCCCC(=O)N(C)C[C@H](O)[C@@H](O)[C@H](O)[C@H](O)CO [Mega 10, decanoyl-N-methylglucamide]     X-MuLV     completely
1  CCCCCCCCC(=O)N(C)C[C@H](O)[C@@H](O)[C@H](O)[C@H](O)CO [Mega 9, nonaoyl-N-methylglucamide]     X-MuLV     completely

====

- System: X-MuLV
- Type: cell-based, xenotropic murine leukemia virus
- protocol conditions: rFVIII, 2° C., 30 min; Mega 8 1.81%, Mega 9 0.84%, Mega 10 0.20%, Mega 12 0.014% (w/v)
endpoint: Infection observed

                                   compound  readout_value
0  CCCCCCCC(=O)N(C)C[C@H](O)[C@@H](O)[C@H](O)[C@H](O)CO [Mega 8, octanoyl-N-methylglucamide]             No
1  CCCCCCCCCC(=O)N(C)C[C@H](O)[C@@H](O)[C@H](O)[C@H](O)CO [Mega 10, decanoyl-N-methylglucamide]             No
2  CCCCCCCCC(=O)N(C)C[C@H](O)[C@@H](O)[C@H](O)[C@H](O)CO [Mega 9, nonaoyl-N-methylglucamide]             No
3  CCCCCCCCCCCC(=O)N(C)CC(O)C(O)C(O)C(O)CO (stereo not shown) [Mega 12, dodecanoyl-N-methylglucamide]             No

====

- Tested on: X-MuLV
- Assay type: cell-based, xenotropic murine leukemia virus
- protocol conditions: 0.5×CMC, 2° C., 30 minutes
endpoint: X-MuLV inactivation

>>> df
                                   molecule  tested_on  readout_value
0  CCCCCCCCCC(=O)N(C)C[C@H](O)[C@@H](O)[C@H](O)[C@H](O)CO [Mega 10, decanoyl-N-methylglucamide]     X-MuLV      partially
1  CCCCCCCCC(=O)N(C)C[C@H](O)[C@@H](O)[C@H](O)[C@H](O)CO [Mega 9, nonaoyl-N-methylglucamide]     X-MuLV      partially

====

- System: X-MuLV
- Type: cell-based, xenotropic murine leukemia virus
- protocol conditions: rFVIII, Room Temperature, 30 min; Mega 8 1.81%, Mega 9 0.45%, Mega 10 0.10%, Mega 12 0.014% (w/v)
Log Reduction Factor (LRF): recorded values
endpoint: Log Reduction Factor (LRF)

                                   compound  readout_value
0  CCCCCCCCCCCC(=O)N(C)CC(O)C(O)C(O)C(O)CO (stereo not shown) [Mega 12, dodecanoyl-N-methylglucamide]          ≥4.32
1  CCCCCCCCC(=O)N(C)C[C@H](O)[C@@H](O)[C@H](O)[C@H](O)CO [Mega 9, nonaoyl-N-methylglucamide]          ≥4.32
2  CCCCCCCCCC(=O)N(C)C[C@H](O)[C@@H](O)[C@H](O)[C@H](O)CO [Mega 10, decanoyl-N-methylglucamide]          ≥4.32
3  CCCCCCCC(=O)N(C)C[C@H](O)[C@@H](O)[C@H](O)[C@H](O)CO [Mega 8, octanoyl-N-methylglucamide]          ≥4.32
